Molecular target: G-protein coupled receptor 55 (Homo sapiens, UniProt Q9Y2T6)
Sequence (Q9Y2T6 whole entry): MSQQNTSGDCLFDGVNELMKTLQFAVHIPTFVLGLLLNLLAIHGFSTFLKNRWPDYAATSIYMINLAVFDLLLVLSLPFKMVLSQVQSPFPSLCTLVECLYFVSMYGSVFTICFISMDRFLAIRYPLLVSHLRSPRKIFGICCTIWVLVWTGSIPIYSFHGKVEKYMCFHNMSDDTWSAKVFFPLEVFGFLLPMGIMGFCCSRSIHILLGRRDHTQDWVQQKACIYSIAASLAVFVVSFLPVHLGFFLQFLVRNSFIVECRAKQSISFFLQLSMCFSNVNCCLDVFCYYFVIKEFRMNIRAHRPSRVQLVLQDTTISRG
Assay: Antagonist activity at human GPR55 expressed in CHO cells assessed as inhibition of lysophosphotidylinositol-induced beta-arrestin recruitment at 10 uM preincubated for 30 mins followed by lysophosphotidylinositol induction by beta-galactosidase reporter gene assay relative to control
Assay type: functional, cell-based
measurement_name: inhibition (%)

Field request: inhibition | item: "Nc1cc(Br)cc2c(=O)cc(C(=O)O)oc12" 17

Field request: inhibition | item: "O=C(Nc1cccc2c(=O)cc(C(=O)O)oc12)c1cccc([N+](=O)[O-])c1" 20

Field request: inhibition | item: "Nc1cccc2c(=O)cc(C(=O)O)oc12" 19

Field request: inhibition | item: "CCC(=O)Nc1cccc2c(=O)cc(C(=O)O)oc12" 16
